- system: Receptor-type tyrosine-protein kinase FLT3 (Homo sapiens, UniProt P36888, ITD)
- measurement description: Inhibition of FLT3-ITD (unknown origin)
value type: pIC50
Keep it numeric: pIC50 is minus log10 of the concentration in mol/L.

Please look up its pIC50: COc1cc2c(Oc3ccc(NC(=O)Nc4cccc(C)c4)cc3F)ccnc2cc1OCCCN1CCOCC1 8.15

----------
- system: NT-3 growth factor receptor (Homo sapiens, UniProt Q16288)
- Sequence (Q16288 whole entry): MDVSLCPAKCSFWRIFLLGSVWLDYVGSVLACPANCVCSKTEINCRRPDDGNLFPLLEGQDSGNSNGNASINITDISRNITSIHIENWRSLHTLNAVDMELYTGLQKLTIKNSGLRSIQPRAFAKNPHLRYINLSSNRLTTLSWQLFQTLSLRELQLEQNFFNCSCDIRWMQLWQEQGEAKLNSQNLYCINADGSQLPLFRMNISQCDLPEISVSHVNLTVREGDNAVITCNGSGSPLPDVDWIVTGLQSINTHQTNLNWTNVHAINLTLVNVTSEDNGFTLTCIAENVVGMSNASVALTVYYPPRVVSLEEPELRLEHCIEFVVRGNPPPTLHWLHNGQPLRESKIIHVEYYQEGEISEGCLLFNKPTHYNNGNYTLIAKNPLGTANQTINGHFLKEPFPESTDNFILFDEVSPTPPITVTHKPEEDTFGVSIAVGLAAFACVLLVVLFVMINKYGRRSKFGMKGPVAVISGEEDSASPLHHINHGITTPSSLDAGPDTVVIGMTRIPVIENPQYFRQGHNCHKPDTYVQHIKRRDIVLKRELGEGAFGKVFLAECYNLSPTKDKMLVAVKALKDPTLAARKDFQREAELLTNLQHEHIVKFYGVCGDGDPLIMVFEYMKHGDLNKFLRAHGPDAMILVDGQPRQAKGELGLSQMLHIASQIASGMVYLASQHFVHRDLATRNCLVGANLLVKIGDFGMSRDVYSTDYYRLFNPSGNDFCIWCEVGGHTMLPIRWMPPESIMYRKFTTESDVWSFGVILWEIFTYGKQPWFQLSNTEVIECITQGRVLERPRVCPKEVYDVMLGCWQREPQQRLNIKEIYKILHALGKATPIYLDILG
value type: IC50
Enter the number, and then the unit.

# get_value(readout='IC50', item= COc1cc2ncc(-c3cccc(NC4CCNC4)n3)n2cc1-c1cnn(C)c1 (stereo unspecified) ) 0.7 nM

----------
- system: Tyrosine-protein kinase Fgr (Homo sapiens, UniProt P09769)
- Sequence (P09769 whole entry): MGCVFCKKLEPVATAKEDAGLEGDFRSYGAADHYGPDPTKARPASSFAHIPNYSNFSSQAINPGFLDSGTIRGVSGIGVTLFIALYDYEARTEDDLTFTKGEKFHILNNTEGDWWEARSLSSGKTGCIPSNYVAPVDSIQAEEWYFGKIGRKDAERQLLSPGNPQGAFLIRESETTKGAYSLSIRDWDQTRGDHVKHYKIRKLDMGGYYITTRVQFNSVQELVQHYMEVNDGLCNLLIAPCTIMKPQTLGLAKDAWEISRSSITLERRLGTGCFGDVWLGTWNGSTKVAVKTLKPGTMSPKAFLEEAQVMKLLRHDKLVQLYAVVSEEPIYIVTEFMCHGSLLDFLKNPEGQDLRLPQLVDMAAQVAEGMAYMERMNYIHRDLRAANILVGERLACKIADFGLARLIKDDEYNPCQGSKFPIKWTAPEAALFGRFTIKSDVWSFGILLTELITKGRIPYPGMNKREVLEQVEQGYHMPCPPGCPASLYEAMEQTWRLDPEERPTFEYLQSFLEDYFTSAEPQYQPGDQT
pIC50: −log10 of the molar value.
value type: pIC50

If you can, please state the reported pIC50 value of COc1cc2ncc(-c3cccc(NC4CCNC4)n3)n2cc1-c1cnn(C)c1 (stereo unspecified) . > 9.30

----------
- Test system: BaF3
- measurement description: cells
- experimental setup: Mus musculus
value type: pIC50
Units for pIC50: none; it is -log10 of a concentration expressed in mol/L.

Requested read-out: pIC50. Entry: CCc1nc(C(N)=O)c(Nc2ccc(N3CCC(N4CCN(C)CC4)CC3)c(OC)c2)nc1NC1CCOCC1 8.68

----------
- system: Leukocyte tyrosine kinase receptor (Homo sapiens)
- measurement description: Inhibition of LTK (unknown origin)
value type: IC50 (nM)
All answers are understood in nM, so give the number only.

Using the record for CCc1nc(C(N)=O)c(Nc2ccc(N3CCC(N4CCN(C)CC4)CC3)c(OC)c2)nc1NC1CCOCC1 , report its IC50. 0.35

----------
- system: Receptor-type tyrosine-protein kinase FLT3 (Homo sapiens, UniProt P36888, D835H)
- measurement description: Binding affinity to FLT3-D835H mutant (unknown origin) assessed as dissociation constant
value type: pKd
Please treat pKd as minus the base-10 logarithm of the molar concentration.

Reported pKd, compound C[C@H]1CC[C@@H](n2c3cnccc3c3cnc(Nc4ccc5c(n4)CCN(C(=O)CO)C5)nc32)CC1 : ____ 9.00

----------
- system: UniProt:P36888
value type: IC50

Give recorded IC50 with UniProt:P36888 for the following compound: C[C@H]1CC[C@@H](n2c3cnccc3c3cnc(Nc4ccc5c(n4)CCN(C(=O)CO)C5)nc32)CC1 1 nM

----------
- system: Receptor-type tyrosine-protein kinase FLT3 (Homo sapiens, UniProt P36888, D835Y)
- measurement description: Binding affinity to FLT3-D835Y mutant (unknown origin) assessed as dissociation constant
value type: Kd

Endpoint output: Kd of C[C@H]1CC[C@@H](n2c3cnccc3c3cnc(Nc4ccc5c(n4)CCN(C(=O)CO)C5)nc32)CC1 . Value? 1 nM

Source of measurements: ChEMBL document CHEMBL5149977
